Ref: ChEMBL document CHEMBL5154916

Assay: Half life in Wistar rat total plasma at 1 mg/kg, iv by HPLC-MS/MS analysis
Format: ADME, organism-based
Property Measured: half-life (min)

| Smiles Text | half-life (min) |
| --- | --- |
| CC(=O)N1Cc2ccc(OCc3c(C)nnn3-c3ccc(F)cc3)nc2C1 | 13.8 |

P = Cc1onc(-c2ccc(F)cc2)c1COc1ccc2c(n1)CCN(C(=O)CS(C)(=O)=O)C2
Q = CC(=O)N1CCc2nc(OCc3c(C)nnn3-c3ccc(F)cc3)ccc2C1
Ask | Hi, I'm comparing two records. Which one has the lower half-life, P or Q ? # answer = label of selected item
Reply | Q

----------
Assay: Ratio of drug level in brain to plasma in Wistar rat at 3 mg/kg, po measured at 1.5 hr post dose
Format: ADME, organism-based
Details: brain and plasma, read-out: BPR
Property Measured: Kp at 1.5 h

| Molecule | Kp at 1.5 h |
| --- | --- |
| Cc1nnn(-c2ccc(F)cc2)c1COc1ccc2c(n1)CCN(C(=O)C1CCCO1)C2 (stereo unspecified) | 0.31 |

a = CC(=O)N1Cc2ccc(OCc3c(C)nnn3-c3ccc(F)cc3)nc2C1
b = Cc1nnn(-c2ccc(F)cc2)c1COc1ccc2c(n1)CCN(CCS(C)(=O)=O)C2=O
c = Cc1nnn(-c2ccc(F)cc2)c1COc1ccc2c(n1)CCN(C(=O)C1CCOC1)C2 (stereo unspecified)
Ask | Given 3 molecules, produce a descending ranking by Kp at 1.5 h. Provide the ranking by listing each label in its place in the requested order.
Reply | a, c, b
(a: 0.38, c: 0.21, b: 0.02)

1 = CC(=O)N1CCc2nc(OCc3c(C)nnn3-c3ccc(F)cc3)ccc2C1
2 = Cc1onc(-c2ccc(F)cc2)c1COc1ccc2c(n1)CCN(C(=O)CS(C)(=O)=O)C2
Ask | Between the two listed entries 1 and 2 , which has its Kp at 1.5 h at the higher number? # answer = label of selected item
Reply | 2

----------
Experiment: Metabolic stability in human liver microsomes assessed as intrinsic clearance at 2.5 uM
Assay type: ADME, Microsome
Details: read-out: CLH
Property Measured: microsomal CLint at 2.5 µM (µL/min/mg)

Use these answered entries as a reference point.
| Smiles Text | Reported |
| --- | --- |
| Cc1onc(-c2ccc(F)cc2)c1COc1ccc(C(=O)N2CCS(=O)(=O)CC2)cn1 | 7.5 |
| Cc1onc(-c2ccc(F)cc2)c1COc1ccc2c(n1)CCN(CCS(C)(=O)=O)C2=O | 7 |
| CC(=O)N1Cc2ccc(OCc3c(C)nnn3-c3ccc(F)cc3)nc2C1 | 9 |

A = Cc1nnn(-c2ccc(F)cc2)c1COc1ccc2c(n1)CCN(C(=O)C1CC1)C2
B = Cc1onc(-c2ccc(F)cc2)c1COc1ccc2c(c1)OCC(=O)N2C
Ask | Hi, I'm comparing two records. Which one has the lower microsomal CLint at 2.5 µM, A or B ? # answer = label of selected item
Reply | B

----------
Test: Metabolic stability in human liver microsomes assessed as intrinsic clearance at 2.5 uM
Type: ADME, Microsome
Settings: read-out: CLH
Property Measured: microsomal CLint at 2.5 µM (µL/min/mg)

| Molecule | Unit Symbol | Reported |
| --- | --- | --- |
| Cc1onc(-c2ccc(F)cc2)c1COc1ccc2c(n1)CCN(C(=O)N1CCOCC1)C2 | µL/min/mg | 32 |
| Cc1nnn(-c2ccc(F)cc2)c1COc1ccc2c(n1)CCN(C(=O)C1CCOC1)C2 (centres undefined) | µL/min/mg | 13 |

a = Cc1onc(-c2ccc(F)cc2)c1COc1ccc2c(n1)CCN(C(=O)C1CCC1)C2
b = Cc1onc(-c2ccc(F)cc2)c1COc1ccc2c(n1)CCN(C(=O)CS(C)(=O)=O)C2
c = Cc1nnn(-c2ccc(F)cc2)c1COc1ccc2c(n1)CCN(C(=O)NC1CCOC1)C2 (centres undefined)
Ask | Your job: order these 3 records by microsomal CLint at 2.5 µM, ascending. Provide the ranking by listing each label in its place in the requested order.
Reply | b, c, a
(b: 6 µL/min/mg, c: 10 µL/min/mg, a: 57 µL/min/mg)

----------
Experiment: Metabolic stability in human hepatocyte assessed as intrinsic clearance measured per 10^6 cells
Assay type: ADME, cell-based
Settings: hepatocytes, read-out: CLH
Property Measured: hepatocyte CLint (µL/min/1e6 cells)
All answers are understood in µL/min/1e6 cells, so give the number only.

Ask | So what's the measured hepatocyte CLint for this one? Cc1onc(-c2ccc(F)cc2)c1COc1ccc2c(n1)CCN(C(=O)CS(C)(=O)=O)C2
Reply | 3

----------
Target: GABA-A receptor; alpha-5/beta-3/gamma-2 (Homo sapiens) (UniProt P18507+P28472+P31644)
Assay: Negative allosteric modulation activity at human recombinant alpha5beta3gamma2 GABAA receptor stably expressed in HEK293 cells assessed as modulation at alpha5 subunit at 10 uM by Patch clamp method
Format: cell-based
Details: filed as negative allosteric modulator
Property Measured: Activity (%)

| Smiles Text | Unit Symbol | Activity |
| --- | --- | --- |
| CC(=O)N1Cc2ccc(OCc3c(C)nnn3-c3ccc(F)cc3)nc2C1 | % | -30 |
| Cc1onc(-c2ccc(F)cc2)c1COc1ccc2c(n1)CCN(C(=O)c1ccno1)C2 | % | -32 |
| Cc1onc(-c2ccc(F)cc2)c1COc1ccc2c(n1)CCN(C(=O)C1CCS(=O)(=O)CC1)C2 | % | -38 |

----------
Assay: Tmax in Wistar rat total plasma at 1 mg/kg, po by HPLC-MS/MS analysis
Format: ADME, organism-based
Property Measured: Tmax (min)

| Smiles Text | Unit Symbol | Tmax |
| --- | --- | --- |
| CC(=O)N1Cc2ccc(OCc3c(C)nnn3-c3ccc(F)cc3)nc2C1 | min | 30 |
| CC(=O)N1CCc2nc(OCc3c(C)nnn3-c3ccc(F)cc3)ccc2C1 | min | 30 |
| Cc1onc(-c2ccc(F)cc2)c1COc1ccc2c(n1)CCN(C(=O)CS(C)(=O)=O)C2 | min | 30 |

----------
Assay: Bioavailability in female dog at 10 mg/kg, po or 3 mg/kg, iv by HPLC-MS/MS analysis
Assay type: ADME, organism-based, Canis lupus familiaris
Conditions: in vivo
Property Measured: bioavailability (%)
All answers are understood in %, so give the number only.

Ask | So what's the measured bioavailability for this one? Cc1onc(-c2ccc(F)cc2)c1COc1ccc2c(n1)CCN(C(=O)CS(C)(=O)=O)C2
Reply | 6.7

----------
Assay: Thermodynamic solubility of the compound at pH 5
Assay type: physicochemical
Conditions: buffer, read-out: Therm_solubility
Property Measured: solubility thermodynamic (µM)
All answers are understood in µM, so give the number only.

Ask | So what's the measured solubility thermodynamic for this one? Cc1onc(-c2ccc(F)cc2)c1COc1ccc2c(n1)CCN(C(=O)CS(C)(=O)=O)C2
Reply | 142

----------
Assay: Metabolic stability in human liver microsomes assessed as intrinsic clearance at 2.5 uM
Assay type: ADME, Microsome
Conditions: read-out: CLH
Property Measured: microsomal CLint at 2.5 µM (µL/min/mg)

| Compound | microsomal CLint at 2.5 µM (µL/min/mg) |
| --- | --- |
| Cc1onc(-c2ccc(F)cc2)c1COc1ccc2c(n1)CCN(C(=O)N(C)C)C2 | 49 |
| CC(=O)N1CCc2nc(OCc3c(C)nnn3-c3ccc(F)cc3)ccc2C1 | 18 |
| Cc1onc(-c2ccc(F)cc2)c1COc1ccc2c(c1)CCNC2=O | 10 |

P = Cc1onc(-c2ccc(F)cc2)c1COc1ccc2c(n1)CCN(Cc1ccco1)C2=O
Q = Cc1nnn(-c2ccc(F)cc2)c1COc1ccc2c(n1)CCN(C(=O)C1CC(=O)N(C)C1)C2 (stereo not given)
Ask | Hi, I'm comparing two records. Which one has the lower microsomal CLint at 2.5 µM, P or Q ? # answer = label of selected item
Reply | Q
(Q: 1 µL/min/mg, P: 85 µL/min/mg)

----------
Assay: Clearance in Wistar rat plasma at 1 mg/kg, iv by HPLC-MS/MS analysis
Assay type: ADME, organism-based
Property Measured: clearance (mL/min/kg)

| Smiles Text | clearance / mL/min/kg |
| --- | --- |
| Cc1onc(-c2ccc(F)cc2)c1COc1ccc2c(n1)CCN(C(=O)CS(C)(=O)=O)C2 | 41.3 |
| CC(=O)N1CCc2nc(OCc3c(C)nnn3-c3ccc(F)cc3)ccc2C1 | 77.9 |
| CC(=O)N1Cc2ccc(OCc3c(C)nnn3-c3ccc(F)cc3)nc2C1 | 55.5 |

----------
Assay: Metabolic stability in human liver microsomes assessed as intrinsic clearance at 2.5 uM
Format: ADME, Microsome
Details: read-out: CLH
Property Measured: microsomal CLint at 2.5 µM (µL/min/mg)

Use these answered entries as a reference point.
| Smiles Text | Unit Symbol | microsomal CLint at 2.5 µM |
| --- | --- | --- |
| Cc1onc(-c2ccc(F)cc2)c1COc1ccc2c(n1)CCN(C(=O)N1CCCCC1)C2 | µL/min/mg | 107 |
| Cc1onc(-c2ccc(F)cc2)c1COc1ccc2c(n1)CCN(C(=O)CCS(C)(=O)=O)C2 | µL/min/mg | 9 |

A = Cc1onc(-c2ccc(F)cc2)c1COc1ccc2c(n1)CCN(C(=O)c1ccno1)C2
B = Cc1onc(-c2ccc(F)cc2)c1COc1ccc2c(n1)CCN(C(=O)C1CCOCC1)C2
Ask | Hi, I'm comparing two records. Which one has the lower microsomal CLint at 2.5 µM, A or B ? # answer = label of selected item
Reply | B
(B: 10 µL/min/mg, A: 67 µL/min/mg)
